I'd appreciate it if you could supply IC50 in IL-17RA/IL7RC dimerization assay values for the items below.
# system: IL-17A (agonist in the IL-17RA/IL17RC dimerization assay) (UniProt Q16552 24-155)
# Sequence (Q16552 24-155 limits assumed): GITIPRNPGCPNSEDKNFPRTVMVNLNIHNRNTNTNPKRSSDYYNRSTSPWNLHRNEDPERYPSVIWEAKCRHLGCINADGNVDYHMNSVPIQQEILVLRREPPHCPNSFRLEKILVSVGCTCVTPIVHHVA
# measurement.notes: cell-based or functional assay

If you can, please state the reported IC50 in IL-17RA/IL7RC dimerization assay value of Ac-VRAYVPADLWDWINK-NH2 [peptide of SEQ ID NO: 243] .
< 10 µM

If you can, please state the reported IC50 in IL-17RA/IL7RC dimerization assay value of Ac-IHFTIPADLWDWINK-NH2 [peptide of SEQ ID NO: 174] .
< 10 µM

If you can, please state the reported IC50 in IL-17RA/IL7RC dimerization assay value of Ac-IHVTIPAQLWDWINK-NH2 [peptide of SEQ ID NO: 199] .
< 10 µM

If you can, please state the reported IC50 in IL-17RA/IL7RC dimerization assay value of Ac-VHVTIPADLWNWVRR-NH2 [peptide of SEQ ID NO: 119] .
< 0.5 µM

If you can, please state the reported IC50 in IL-17RA/IL7RC dimerization assay value of Ac-VHVTVPQELYEWVEE-NH2 [peptide of SEQ ID NO: 229] .
< 10 µM

If you can, please state the reported IC50 in IL-17RA/IL7RC dimerization assay value of Ac-IHVTIPADLWDWFNK-NH2 [peptide of SEQ ID NO: 218] .
< 10 µM

If you can, please state the reported IC50 in IL-17RA/IL7RC dimerization assay value of Ac-VHFTFPQDLYNFVRR-NH2 [peptide of SEQ ID NO: 148] .
< 0.5 µM
